- EXPERIMENTAL TARGET: T1, human C16orf54 ECD fragment aa9-24 (human)
- T1 peptide: SGRVEGPPAWEAAPWP
- ASSAY METHOD TEXT: peptide ELISA, 2 ug/ml peptide coated, 10 ug/ml antibody
PROPERTY NAME: binding result

INSERT INTO measurements (binder, experimental_result) VALUES
  ('R29-8-136C (antibody, V domains shown, Murine monoclonal antibody from a hybridoma) VH: DVQLQESGPGLVKPSQSLSLTCTVTGYSITSDYAWNWIRQFPGNKLEWMGYINYSGSSRYNPSLKSRISITRDTSKNHFFLQLNSVTPEDTATYHCARERYDGVYYGMDYWGQGTSVTVSS VL: DIVMSQSPSSLAVSVGEKVTMSCKSSQSLLYSSNQKNYLAWYQQKPGQSPKLLIYWASTRESGVPDRFTGSGSGTDFTLTISSVKTEDLAVYYCQQYYSYRTFGGGTKLEIK', 'binds'),
  ('R29-7-1C (antibody, V domains shown, Murine monoclonal IgG2a from a hybridoma) VH: DVQLQESGPGLVKPSQSLSLTCTVTGYSITSDYAWNWIRQFPGNKLEWMGYISYSGSIRYNPSLKSRISITRDTSKNQFFLQLNSVTTEDTATYYCAREKYDNYYYAMDYWGQGTSVTVSS VL: DIVMSQSPSSLAVSVGEKVTLSCKSSQNLLYSTNQKNYLAWYQQKPGQSPKLLIYWASTRESGVPDRFTGSGSGTDFTLTISSVKAEDLAVYYCQQYYSYRTFGGGTKLEIK', 'binds'),
  ('R29-67-7A (antibody, V domains shown, Murine monoclonal IgG2a from a hybridoma) VH: DVQLQESGPGLVKPSQSLSLTCTVTGYSITSDYAWNWIRQFPGNKLEWMGYINYSGRTRYNPSLNSRISLTRDTSTNQFFLQLNSVTTEDTATYYCARENYDYEFYAMDYWGQGTSVTVSS VL: DIVMSQSPSSLAVSVGEKVTMSCKSSQNLLYSSNQKNYLAWYQQKPGQSPKLLIYWASTRESGVPDRFTGSGSGTDFTLTISSVKAEDLAVYYCQQYYIYRTFGGGTKLEIK', 'binds');

All figures here come from patent US20150231240A1.
